Molecular target: calcium channel (ileum) (Rattus norvegicus)
Sequence (P22002 whole entry): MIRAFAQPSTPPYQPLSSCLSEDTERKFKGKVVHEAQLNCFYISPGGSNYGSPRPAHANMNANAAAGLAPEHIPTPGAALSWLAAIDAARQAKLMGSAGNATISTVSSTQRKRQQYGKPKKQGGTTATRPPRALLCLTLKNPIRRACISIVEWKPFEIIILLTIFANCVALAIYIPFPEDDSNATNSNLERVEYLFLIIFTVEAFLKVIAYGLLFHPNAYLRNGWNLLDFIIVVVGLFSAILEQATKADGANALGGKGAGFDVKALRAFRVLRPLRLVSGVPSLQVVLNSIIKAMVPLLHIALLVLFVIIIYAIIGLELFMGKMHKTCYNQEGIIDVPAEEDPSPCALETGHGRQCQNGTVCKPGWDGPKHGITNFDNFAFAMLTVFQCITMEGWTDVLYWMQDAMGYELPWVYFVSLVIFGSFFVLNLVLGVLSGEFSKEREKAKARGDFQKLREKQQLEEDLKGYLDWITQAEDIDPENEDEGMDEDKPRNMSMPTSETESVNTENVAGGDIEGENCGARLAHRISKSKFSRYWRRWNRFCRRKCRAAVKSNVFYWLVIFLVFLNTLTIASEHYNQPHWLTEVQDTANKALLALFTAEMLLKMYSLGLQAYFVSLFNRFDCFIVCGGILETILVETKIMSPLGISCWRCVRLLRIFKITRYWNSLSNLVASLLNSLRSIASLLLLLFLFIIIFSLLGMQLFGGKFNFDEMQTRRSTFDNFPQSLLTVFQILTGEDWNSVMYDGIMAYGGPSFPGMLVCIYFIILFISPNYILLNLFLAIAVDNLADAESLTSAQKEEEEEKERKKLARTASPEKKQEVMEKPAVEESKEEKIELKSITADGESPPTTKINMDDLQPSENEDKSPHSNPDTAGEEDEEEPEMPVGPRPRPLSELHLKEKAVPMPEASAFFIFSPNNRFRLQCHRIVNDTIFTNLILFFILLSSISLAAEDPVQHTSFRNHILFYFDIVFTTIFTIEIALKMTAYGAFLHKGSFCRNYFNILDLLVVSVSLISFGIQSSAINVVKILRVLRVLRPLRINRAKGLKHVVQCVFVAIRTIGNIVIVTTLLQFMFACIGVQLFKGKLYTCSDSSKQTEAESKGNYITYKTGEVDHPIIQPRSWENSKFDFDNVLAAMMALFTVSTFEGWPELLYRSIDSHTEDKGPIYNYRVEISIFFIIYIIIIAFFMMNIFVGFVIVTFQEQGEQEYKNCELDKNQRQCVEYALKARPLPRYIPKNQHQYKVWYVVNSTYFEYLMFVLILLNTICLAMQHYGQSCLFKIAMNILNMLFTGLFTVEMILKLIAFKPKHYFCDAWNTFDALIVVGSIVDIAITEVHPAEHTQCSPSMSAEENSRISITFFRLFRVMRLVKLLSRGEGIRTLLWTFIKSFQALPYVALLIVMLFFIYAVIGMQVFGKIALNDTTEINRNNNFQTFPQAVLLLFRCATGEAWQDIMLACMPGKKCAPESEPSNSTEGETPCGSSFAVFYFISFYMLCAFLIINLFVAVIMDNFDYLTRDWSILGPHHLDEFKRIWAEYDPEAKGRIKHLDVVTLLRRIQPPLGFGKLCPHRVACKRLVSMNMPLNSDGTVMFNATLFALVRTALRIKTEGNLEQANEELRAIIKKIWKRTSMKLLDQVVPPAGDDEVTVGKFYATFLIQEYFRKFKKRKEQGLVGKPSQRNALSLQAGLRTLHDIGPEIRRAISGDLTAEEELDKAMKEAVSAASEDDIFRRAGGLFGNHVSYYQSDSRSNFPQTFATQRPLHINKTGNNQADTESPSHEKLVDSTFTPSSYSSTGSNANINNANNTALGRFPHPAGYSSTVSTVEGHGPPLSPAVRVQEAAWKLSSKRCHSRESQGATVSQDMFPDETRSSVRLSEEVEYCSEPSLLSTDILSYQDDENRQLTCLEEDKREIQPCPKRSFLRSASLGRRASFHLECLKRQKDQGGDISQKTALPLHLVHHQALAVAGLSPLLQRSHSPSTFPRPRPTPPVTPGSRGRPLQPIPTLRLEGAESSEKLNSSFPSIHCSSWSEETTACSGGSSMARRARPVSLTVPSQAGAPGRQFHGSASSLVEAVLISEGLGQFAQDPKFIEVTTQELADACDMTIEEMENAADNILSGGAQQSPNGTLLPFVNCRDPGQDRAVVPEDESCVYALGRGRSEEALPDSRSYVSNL
Assay: In vitro calcium channel antagonistic effect (ileum): inhibition of high potassium contraction of ileum samples
Conditions: high potassium (45.0 mM KCl) contraction, 10^−7 M test compound, 30 minute pretreatment, read-out: Inhibition rate (%) (conc.: 10^−7M)
Counter-ions that a name gives are not always drawn.
measurement kind: inhibition at 0.1 µM (%)

[[record]]
molecule = "COc1ccc(CCCN(C)CCN2c3ccccc3COc3ccccc32)cc1 [Example 16, Hydrochloride]"
measurement_unit = "%"
recorded_result = 82

[[record]]
molecule = "COc1ccc(CCN(C)CCN2c3ccccc3COc3ccccc32)cc1.Cl [Example 14, Hydrochloride]"
measurement_unit = "%"
recorded_result = 105

[[record]]
molecule = "COc1ccc(CCN2CCCC2CN2c3ccccc3CSc3ccccc32)cc1 (stereo not shown) [Compound A, reference compound]"
measurement_unit = "%"
recorded_result = 48

[[record]]
molecule = "CN(CCc1ccc2c(c1)OCO2)CCN1c2ccccc2COc2ccccc21 [Example 17, Hydrochloride]"
measurement_unit = "%"
recorded_result = 78

